assay: in vitro; conditions: human
measurementKind: CC50 at 2 days (µM)
Supply the numeric figure in µM, leaving out any unit text.

Lookup: For the compound CC(=O)Oc1ccccc1C(=O)Nc1ncc([N+](=O)[O-])s1 [NTZ, Nitazoxanide] , give its measured CC50 at 2 days value.
Found: 9.15

###

assay: Population pharmacokinetic modelling and simulation of TIZ in hamster (LC-MS/MS, NONMEM); settings: Syrian, in vivo, po
measurementKind: Tmax
A complete answer gives the number followed by the unit.

Lookup: # return recorded Tmax for input O=C(Nc1ncc([N+](=O)[O-])s1)c1ccccc1O [TIZ, tizoxanide]
Found: 16.6 min

###

assay: Quantification of TIZ in plasma, lung and nasal turbinates of hamsters (HPLC-UV); assay type: in vivo, Syrian hamsters; conditions: Syrian, hamster, in vivo, 2.8 mg/kg/day TID, multiple dose, infected animals, nitazoxanide IN 2,8 mg/kg/day TID, 12h post-administration, individual animals; read-out: Tizoxanide concentration in blood
measurementKind: concentration at 12 h (ng/mL)
Unit ng/mL implied. Number only.

Lookup: Query concentration at 12 h for O=C(Nc1ncc([N+](=O)[O-])s1)c1ccccc1O [TIZ, tizoxanide]
Found: 8

Entry source: paper PMC9271885
